- target: B2 bradykinin receptor (Homo sapiens)
- Sequence (whole entry): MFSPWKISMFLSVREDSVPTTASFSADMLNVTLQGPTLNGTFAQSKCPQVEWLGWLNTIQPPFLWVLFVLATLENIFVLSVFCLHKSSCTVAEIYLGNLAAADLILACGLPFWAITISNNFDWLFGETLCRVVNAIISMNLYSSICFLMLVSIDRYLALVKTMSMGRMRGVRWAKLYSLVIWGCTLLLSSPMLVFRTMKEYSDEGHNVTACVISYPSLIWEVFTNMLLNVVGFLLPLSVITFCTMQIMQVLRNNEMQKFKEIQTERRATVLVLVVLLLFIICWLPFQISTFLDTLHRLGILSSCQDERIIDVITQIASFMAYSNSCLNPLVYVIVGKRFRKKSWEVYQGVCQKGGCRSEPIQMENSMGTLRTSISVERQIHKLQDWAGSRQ
- assay: Relative induced inositol phosphate formation in CHO cells expressing the human B2 receptor compared to bradykinin (10 nM)
- Assay type: functional, cell-based
measure: Relative agonistic activity (%)

• Cc1cc(OCc2ccccn2)c2cccc(OCc3c(Cl)ccc(N(C)C(=O)CNC(=O)/C=C/c4ccc(N5CCCC5=O)cc4)c3Cl)c2n1 = 42.9
• CNC(=O)c1ccc(/C=C/C(=O)NCC(=O)N(C)c2ccc(Cl)c(COc3cccc4c(OCc5ccccn5)cc(C)nc34)c2Cl)cc1OC = 54.9
• CNC(=O)c1ccc(/C=C/C(=O)NCC(=O)N(C)c2ccc(Cl)c(COc3cccc4c(OCc5ccccn5)cc(C)nc34)c2Cl)cn1 = 50.5
• CC(=O)Nc1ccc(/C=C/C(=O)NCC(=O)N(C)c2ccc(Cl)c(COc3cccc4c(OCc5ccccn5)cc(C)nc34)c2Cl)cn1 = 43.4
• Cc1cc(OCc2ccccn2)c2cccc(OCc3c(Cl)ccc(N(C)C(=O)CNC(=O)/C=C/c4ccc(NC(=O)Cc5ccncc5)nc4)c3Cl)c2n1 = 39.8
• Cc1cc(OCc2ccccn2)c2cccc(OCc3c(Cl)ccc(N(C)C(=O)CNC(=O)/C=C/c4ccc(C(=O)N(C)C)cc4)c3Cl)c2n1 = 22.3
• CNC(=O)c1ccc(/C=C/C(=O)NCC(=O)N(C)c2ccc(Cl)c(COc3cccc4c(OCc5ccccn5)cc(C)nc34)c2Cl)cc1 = 51.3
• Cc1cc(OCc2ccccn2)c2cccc(OCc3c(Cl)ccc(N(C)C(=O)CNC(=O)/C=C/c4ccc(C(=O)Nc5ccncc5)cc4)c3Cl)c2n1 = 36.7
• Cc1cc(OCc2ccccn2)c2cccc(OCc3c(Cl)ccc(N(C)C(=O)CNC(=O)/C=C/c4ccc(NC(=O)c5ccncc5)cc4)c3Cl)c2n1 = 42.3
